Data credit: paper PMC2756588

Task for the reader: assign each of the following binders its reported SPOT intensity.
assay_target: T1, Boi2, P39969
T1 sequence (P39969 32-116, looked up): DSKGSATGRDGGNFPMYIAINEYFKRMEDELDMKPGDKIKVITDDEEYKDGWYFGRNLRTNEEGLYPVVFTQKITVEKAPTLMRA
protocol_details: SPOT array
condition_context: median of control spots 1161
Write the number on its own, no unit after it.

Qu. Dear colleague, I am looking for the recorded SPOT intensity of the following binder: `NSVPIMPTLPPRPYI`
Ans. 0

Qu. Fill blank: measured SPOT intensity of the binder `QPPLPSSAPPIPTSH` is ____.
Ans. 0

Qu. Which SPOT intensity is listed for `VQPTAAPATPPRHIS` ?
Ans. 0

Qu. If you can, please state the reported SPOT intensity value of `TKIRRRPQQPLTDFT` .
Ans. 1
